Can you tell me IC50 for the items I'm about to list?
ASSAY_TEXT: Antioxidant activity assessed as ABTS radical scavenging activity by spectrophotometry
Type: physicochemical
Give the number; µM is assumed, so skip it.

Input line: Look up IC50 for this compound: COc1cc(/C=C/C(=O)/C=C/c2ccc(O)c(OC)c2)ccc1O
Output line: 30.2

Input line: Look up IC50 for this compound: COc1ccc(/C=C/C(=O)/C=C/c2ccc(OC)c(O)c2)cc1O
Output line: 177

Input line: Look up IC50 for this compound: O=C1O[C@H]([C@@H](O)CO)C(O)=C1O [ASCORBIC ACID]
Output line: 105

Input line: Look up IC50 for this compound: COc1cc(/C=C/C(=O)/C=C/c2cc(OC)c(O)c(OC)c2)ccc1O
Output line: 85.7

Input line: Look up IC50 for this compound: COc1ccc(/C=C/C(=O)/C=C/c2ccc(OC)c(OC)c2)cc1O
Output line: 91.3

Input line: Look up IC50 for this compound: COc1ccc(O)c(/C=C/C(=O)/C=C/c2cc(OC)c(OC)c(OC)c2)c1
Output line: 114

Input line: Look up IC50 for this compound: CCOc1cc(/C=C/C(=O)/C=C/c2ccc(O)c(OC)c2)ccc1O
Output line: 80.6

Input line: Look up IC50 for this compound: CCOc1cc(/C=C/C(=O)/C=C/c2ccc(O)c(OCC)c2)ccc1O
Output line: 128

Input line: Look up IC50 for this compound: COc1ccc(O)c(/C=C/C(=O)/C=C/c2ccc(C)c(C)c2)c1
Output line: 132

Input line: Look up IC50 for this compound: COc1ccc(/C=C/C(=O)/C=C/c2cc(OC)c(O)c(OC)c2)cc1OC
Output line: 36.3

Input line: Look up IC50 for this compound: COc1cc(/C=C/C(=O)/C=C/c2ccc(C)c(C)c2)ccc1O
Output line: 103

Input line: Look up IC50 for this compound: COc1cc(/C=C/C(=O)/C=C/c2ccc(C)c(C)c2)cc(OC)c1O
Output line: 113

Input line: Look up IC50 for this compound: COc1cc(/C=C/C(=O)/C=C/c2cc(OC)c(OC)c(OC)c2)cc(OC)c1O
Output line: 75.1

Input line: Look up IC50 for this compound: COc1ccc(/C=C/C(=O)/C=C/c2cc(OC)c(OC)c(OC)c2)cc1O
Output line: 99.5

Input line: Look up IC50 for this compound: COc1ccc(O)c(/C=C/C(=O)/C=C/c2ccc(OC)c(OC)c2)c1
Output line: 292

Input line: Look up IC50 for this compound: COc1cc(/C=C/C(=O)CC(=O)/C=C/c2ccc(O)c(OC)c2)ccc1O [CURCUMIN]
Output line: 48.6

Input line: Look up IC50 for this compound: COc1ccc(/C=C/C(=O)/C=C/c2ccc(O)c(OC)c2)cc1O
Output line: 105

---

Can you tell me IC50 for the items I'm about to list?
ASSAY_TEXT: Antioxidant activity assessed as ROO. radical scavenging activity by TRAP assay
Assay type: physicochemical
Give the number; µM is assumed, so skip it.

Input line: Look up IC50 for this molecule: COc1cc(/C=C/C(=O)/C=C/c2cc(OC)c(O)c(OC)c2)ccc1O
Output line: 96.4

Input line: Look up IC50 for this molecule: COc1cc(/C=C/C(=O)/C=C/c2cc(OC)c(OC)c(OC)c2)cc(OC)c1O
Output line: 70

Input line: Look up IC50 for this molecule: COc1ccc(/C=C/C(=O)/C=C/c2ccc(O)c(OC)c2)cc1O
Output line: 123

Input line: Look up IC50 for this molecule: COc1cc(/C=C/C(=O)/C=C/c2ccc(C)c(C)c2)ccc1O
Output line: 136

Input line: Look up IC50 for this molecule: COc1ccc(O)c(/C=C/C(=O)/C=C/c2ccc(OC)c(OC)c2)c1
Output line: 182

Input line: Look up IC50 for this molecule: COc1ccc(O)c(/C=C/C(=O)/C=C/c2ccc(C)c(C)c2)c1
Output line: 286

Input line: Look up IC50 for this molecule: COc1ccc(/C=C/C(=O)/C=C/c2ccc(OC)c(OC)c2)cc1O
Output line: 82

Input line: Look up IC50 for this molecule: O=C1O[C@H]([C@@H](O)CO)C(O)=C1O
Output line: 102

Input line: Look up IC50 for this molecule: COc1ccc(O)c(/C=C/C(=O)/C=C/c2cc(OC)c(OC)c(OC)c2)c1
Output line: 184

Input line: Look up IC50 for this molecule: COc1ccc(/C=C/C(=O)/C=C/c2cc(OC)c(O)c(OC)c2)cc1OC
Output line: 47.8

Input line: Look up IC50 for this molecule: COc1cc(/C=C/C(=O)CC(=O)/C=C/c2ccc(O)c(OC)c2)ccc1O
Output line: 54.4

Input line: Look up IC50 for this molecule: CCOc1cc(/C=C/C(=O)/C=C/c2ccc(O)c(OCC)c2)ccc1O
Output line: 128

Input line: Look up IC50 for this molecule: COc1cc(/C=C/C(=O)/C=C/c2ccc(O)c(OC)c2)ccc1O
Output line: 44.5

Input line: Look up IC50 for this molecule: COc1cc(/C=C/C(=O)/C=C/c2ccc(C)c(C)c2)cc(OC)c1O
Output line: 113

Input line: Look up IC50 for this molecule: CCOc1cc(/C=C/C(=O)/C=C/c2ccc(O)c(OC)c2)ccc1O
Output line: 97.2

Input line: Look up IC50 for this molecule: COc1ccc(/C=C/C(=O)/C=C/c2ccc(OC)c(O)c2)cc1O
Output line: 193

Input line: Look up IC50 for this molecule: COc1ccc(/C=C/C(=O)/C=C/c2cc(OC)c(OC)c(OC)c2)cc1O
Output line: 118
